# PROTOCOL TEXT: Confirmation assay for measurement of the activity of small molecule inhibitors on Zika virus induced Caspase-3 activity in human astrocytoma cells
# PARTICULARS: SNB-19 ZIKV-induced caspase-3/7, luminescence, 6 h; series mostly up to 46.1 µM
Results filed as inconclusive are left out. Calls of active or inactive are those of the source. Calls come from the whole dose curve; as a rule, active = well fitted inhibition curve with a large enough effect; inconclusive = small, poorly fitted or top-dose-only effect; inactive = no such curve, though single readings can be large or run the other way.
Labels: class 1 = active, class 0 = inactive

{"columns": ["COMPOUND", "ANSWER LABEL"],
 "data": [
  ["COc1ccc(-c2cc(=O)c3c(O)cc(O)cc3o2)cc1O", "class 1"],
  ["CC(C)OC(=O)CCCC=CC[C@@H]1[C@H](C=C[C@@H](O)COc2cccc(C(F)(F)F)c2)[C@H](O)C[C@@H]1O", "class 0"],
  ["CCC(C)SSc1ncc[nH]1 (stereo not drawn)", "class 0"],
  ["Oc1cc(O)cc(/C=C/c2ccc(O)c(O)c2)c1", "class 1"],
  ["CCCC(=O)OC[C@@H](OC(=O)CCC)[C@@H](OC(=O)CCC)[C@H](Cn1c2nc(=O)[nH]c(=O)c-2nc2cc(C)c(C)cc21)OC(=O)CCC", "class 0"],
  ["CCCS(=O)c1ccc2nc(NC(=O)OC)[nH]c2c1 (stereo not drawn)", "class 1"],
  ["Cc1ccc(O)c(-n2nc3ccccc3n2)c1", "class 1"],
  ["COc1cc(NC(C)CCCN)c2ncccc2c1 (stereo not drawn)", "class 0"],
  ["Nc1ccc(N=Nc2ccccc2)c(N)n1", "class 1"],
  ["CC1=C(CO)C(=O)O[C@@H]([C@@H](C)[C@H]2CC[C@H]3[C@@H]4C[C@H]5O[C@]56[C@@H](O)C=CC(=O)[C@]6(C)[C@@H]4CC[C@]23C)C1", "class 0"],
  ["CC(C(=O)O)c1ccc2c(c1)[nH]c1ccc(Cl)cc12 (stereo not drawn)", "class 0"],
  ["O=C(CS)Nc1ccccc1", "class 0"],
  ["O=C(O)CCC(=O)c1ccc(-c2ccccc2)cc1", "class 1"],
  ["Cc1nc(-c2ccc(OCC(C)C)c(C#N)c2)sc1C(=O)O", "class 1"],
  ["O=C(Oc1ccccc1)c1cccc(C(=O)Oc2ccccc2)c1", "class 1"],
  ["O=S(=O)(O)CCSSCCS(=O)(=O)O", "class 0"],
  ["CC(C)Oc1ccc2c(=O)c(-c3ccccc3)coc2c1", "class 1"],
  ["CC(C)(C)OC(=O)CN(Cc1ccc(Cl)cc1)Cc1ccc([N+](=O)[O-])s1", "class 0"],
  ["O=C(/C=C/c1ccccc1)NCCO", "class 0"],
  ["O=C(/C=C/c1ccc(O)cc1)c1ccc(O)cc1O", "class 1"],
  ["CCCCCNC(=O)N1CCC(CN(Cc2ccc(Cl)cc2)Cc2ccc([N+](=O)[O-])s2)C1 (stereo not drawn)", "class 0"],
  ["CN(C)c1ccc(N=NS(=O)(=O)O)cc1", "class 0"],
  ["O=C(Nc1ccc(C(=O)O)c(O)c1)c1ccccc1", "class 1"],
  ["Cc1c(NC(=O)c2ccc(C(C)(C)C)cc2)cccc1-c1cn(C)c(=O)c(Nc2ccc(C(=O)N3CCOCC3)cc2)n1", "class 0"],
  ["C=C1C(=O)[C@@]23C(CC[C@@H]1[C@H]2O)[C@@]12CO[C@]3(O)[C@@H](O)[C@@H]1C(C)(C)CC[C@@H]2O (stereo partly drawn)", "class 0"],
  ["Cc1cccc(C#Cc2ccccc2)n1", "class 1"],
  ["Nc1ncnc2c1ncn2[C@@H]1O[C@@H](CO)[C@H](O)[C@H]1O", "class 0"],
  ["c1ccc2[nH]c(-c3cscn3)nc2c1", "class 1"],
  ["COc1cccc(-c2cc(=O)c3ccccc3o2)c1N", "class 1"],
  ["COc1ccc(-c2coc3cc(O)ccc3c2=O)cc1", "class 1"],
  ["Cc1c(N)c(=O)n(-c2ccccc2)n1C", "class 0"],
  ["CC1(C)Cc2c(sc(NC(=S)NC(=O)c3ccccc3)c2C(=O)O)CO1", "class 0"],
  ["Cc1ccc(O)c(N=Nc2ccccc2)n1", "class 1"]
]}

====

# PROTOCOL TEXT: Confirmation assay for measurement of the activity of small molecule inhibitors on Zika virus induced Caspase-3 activity in human astrocytoma cells
# PARTICULARS: SNB-19 ZIKV-induced caspase-3/7, luminescence, 6 h; series mostly up to 46.1 µM
Records with an inconclusive call do not appear. Calls of active or inactive are those of the source. Calls come from the whole dose curve; as a rule, active = well fitted inhibition curve with a large enough effect; inconclusive = small, poorly fitted or top-dose-only effect; inactive = no such curve, though single readings can be large or run the other way.
Labels: T = active, F = inactive

{"columns": ["COMPOUND", "ANSWER LABEL"],
 "data": [
  ["O=C(O)[C@@H](c1ccc(OCc2ccc3ccccc3n2)cc1)C1CCCC1", "T"],
  ["COc1ccc(-c2cc(=S)ss2)cc1", "T"],
  ["CC(=O)Oc1ccccc1C(=O)Nc1ncc([N+](=O)[O-])s1", "T"],
  ["O=C1c2ccccc2C(=O)c2c(NCCc3ccc(O)cc3)ccc(NCCc3ccc(O)cc3)c21", "F"],
  ["O=C1C(Cl)=C(NCCN2CCOCC2)C(=O)c2ncccc21", "T"],
  ["OCc1ccc(-c2ccc(-c3ccc(CO)s3)o2)s1", "T"],
  ["Cc1[nH]c(C=C2C(=O)Nc3ccccc32)c(C)c1CCC(=O)O", "F"],
  ["Oc1ccc(/C=C/c2cc(O)cc(O)c2)cc1", "T"],
  ["c1ccc(CCNc2nc(-c3ccccc3)cs2)cc1", "T"],
  ["COc1ccc(NC(=O)/C=C/c2ccc(Cl)cc2)cc1", "T"],
  ["Nc1ccc(-c2ccc3ccccc3n2)cc1", "T"],
  ["CNC1[C@H](O)C(O[C@@H]2C(O)C(O[C@H]3O[C@H]([C@@H](C)NC)CC[C@H]3N)[C@@H](N)C[C@H]2N)OC[C@]1(C)O (stereo not given in full)", "F"],
  ["Cc1cc(O)c2ccccc2c1O", "F"],
  ["CC[C@@]1(O)C[C@H](O[C@H]2C[C@H](N(C)C)[C@H](O[C@H]3C[C@H](O)[C@H](O[C@H]4CCC(=O)[C@H](C)O4)[C@H](C)O3)[C@H](C)O2)c2c(cc3c(c2O)C(=O)c2c(O)cccc2C3=O)[C@@H]1C(=O)OC", "F"],
  ["CC(C(=O)O)c1ccc(C(=O)c2cccs2)cc1 (stereo not given)", "T"],
  ["C[C@@H]1CCN(C(=O)CC#N)C[C@H]1N(C)c1ncnc2[nH]ccc12", "F"],
  ["CCCCCCCCCCCC(=O)[O][Sn]([CH2]CCC)([CH2]CCC)[O]C(=O)CCCCCCCCCCC", "F"],
  ["CCCCCCCC/C=C/C(=O)O", "F"],
  ["O=C(O)c1cccc(-c2noc(-c3ccccc3F)n2)c1", "T"],
  ["CC=CC[C@@H](C)C(=O)[C@H]1C(=O)N[C@@H](C(C)C)C(=O)N(C)CC(=O)N(C)[C@@H](CC(C)C)C(=O)N[C@@H](C(C)C)C(=O)N(C)[C@@H](CC(C)C)C(=O)N[C@@H](C)C(=O)N[C@H](C)C(=O)N(C)[C@@H](CC(C)C)C(=O)N(C)[C@@H](CC(C)C)C(=O)N(C)[C@@H](C(C)C)C(=O)N1C", "F"],
  ["CC(=O)Nc1ccc([C@H](C)C(=O)Nc2ncc(C(C)C)s2)cc1", "T"],
  ["O=c1c2ccccc2nc2n1CCc1c-2[nH]c2ccccc12", "T"],
  ["COc1ccnc2c1CCCCC2S(=O)c1nc2ccccc2[nH]1 (stereo not given)", "F"],
  ["CN1CC(=O)N2C(Cc3c([nH]c4ccccc34)[C@H]2c2ccc3c(c2)OCO3)C1=O (stereo not given in full)", "F"],
  ["O=C(O)c1cc([N+](=O)[O-])ccc1NCCCc1ccccc1", "T"],
  ["O=C(O)[C@H](CC(=O)N1C[C@@H]2CCCC[C@H]2C1)Cc1ccccc1", "F"],
  ["C[C@@H](N)c1ccc(C(=O)Nc2ccnc3[nH]ccc23)cc1", "F"],
  ["CCN1/C(=C/C=C/c2sc3ccccc3[n+]2CC)Sc2ccccc21", "F"],
  ["C[C@H](NC(=O)C(=O)Nc1ccccc1C(C)(C)C)C(=O)N[C@@H](CC(=O)O)C(=O)COc1c(F)c(F)cc(F)c1F", "T"],
  ["O=C(C=CC=Cc1ccc2c(c1)OCO2)N1CCCCC1", "T"],
  ["CN1CC(=O)N/C1=N/C(=O)Nc1cccc(Cl)c1", "T"],
  ["O=C1C[C@@H](c2ccc(O)cc2)Oc2cc(O)cc(O)c21", "T"],
  ["CN(C)c1ccc(/C=C2\\C(=O)Nc3ccccc32)cc1", "T"],
  ["Cc1cc(O)c2c(c1)C(=O)c1cc(O)cc(O)c1C2=O", "T"],
  ["C[C@@H](O[C@H]1OCCN(Cc2n[nH]c(=O)[nH]2)[C@@H]1c1ccc(F)cc1)c1cc(C(F)(F)F)cc(C(F)(F)F)c1", "F"],
  ["CN(C)c1ccc2cc(C(=O)N[C@@H](CCCN=C(N)CCl)C(=O)NCc3ccccc3)ccc2c1", "F"],
  ["Cc1ccc(C(=O)c2ccc(CC(=O)O)n2C)cc1", "F"],
  ["COc1ccc2nc(NC(=O)Nc3ccccc3)sc2c1", "T"],
  ["O=C1NC(=O)C(=Cc2ccc(-c3ccc(F)cc3)o2)S1", "T"],
  ["N[C@H](CSC(c1ccccc1)(c1ccccc1)c1ccccc1)C(=O)O", "F"]
]}

FYI, the data here is from PubChem BioAssay AID1224853.
